molecular target: CDK9/cyclin T complex (Homo sapiens); construct: purchased Proqinase GmbH, Germany; assay: CDK9/cyclin T kinase assay (as for CDK7); assay type: biochemical; conditions: 100 nM; mean of three (standard deviation); read-out: CDK9 % remaining kinase activity after incubation with 100 nM of compound
Sequence (P50750 whole entry): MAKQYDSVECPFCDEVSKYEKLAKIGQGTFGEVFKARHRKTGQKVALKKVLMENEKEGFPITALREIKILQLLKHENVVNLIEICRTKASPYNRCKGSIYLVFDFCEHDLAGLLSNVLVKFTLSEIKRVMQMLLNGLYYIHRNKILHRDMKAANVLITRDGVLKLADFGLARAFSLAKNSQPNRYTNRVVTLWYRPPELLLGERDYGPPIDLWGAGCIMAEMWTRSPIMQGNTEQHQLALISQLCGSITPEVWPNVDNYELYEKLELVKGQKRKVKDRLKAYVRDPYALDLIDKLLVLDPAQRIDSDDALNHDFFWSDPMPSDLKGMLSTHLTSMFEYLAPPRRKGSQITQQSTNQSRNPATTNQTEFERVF
Sequence (O60563 whole entry partner): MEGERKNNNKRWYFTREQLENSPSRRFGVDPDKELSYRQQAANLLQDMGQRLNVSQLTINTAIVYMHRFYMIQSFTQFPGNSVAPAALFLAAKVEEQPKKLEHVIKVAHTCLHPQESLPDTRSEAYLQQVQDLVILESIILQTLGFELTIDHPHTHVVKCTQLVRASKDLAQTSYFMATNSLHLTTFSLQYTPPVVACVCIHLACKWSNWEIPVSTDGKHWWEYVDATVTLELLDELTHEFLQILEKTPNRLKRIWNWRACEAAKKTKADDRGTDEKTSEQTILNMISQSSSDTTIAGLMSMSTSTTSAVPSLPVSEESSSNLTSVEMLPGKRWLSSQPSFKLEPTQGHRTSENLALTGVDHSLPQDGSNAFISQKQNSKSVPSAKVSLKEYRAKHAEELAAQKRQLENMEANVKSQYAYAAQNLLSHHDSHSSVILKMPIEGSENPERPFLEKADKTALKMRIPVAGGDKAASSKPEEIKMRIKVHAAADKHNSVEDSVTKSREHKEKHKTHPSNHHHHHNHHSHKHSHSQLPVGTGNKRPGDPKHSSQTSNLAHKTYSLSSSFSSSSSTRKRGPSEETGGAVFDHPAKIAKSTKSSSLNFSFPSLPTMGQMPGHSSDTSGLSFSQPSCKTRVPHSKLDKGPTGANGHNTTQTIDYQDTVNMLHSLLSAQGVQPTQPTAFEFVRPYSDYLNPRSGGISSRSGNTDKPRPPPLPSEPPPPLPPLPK
property: remaining activity at 0.1 µM

Which remaining activity at 0.1 µM value belongs to CC(C)c1cnn2c(NCc3ccccc3)cc(NCCCCCCC#N)nc12 [ICEC0179] ?
97%

Which remaining activity at 0.1 µM value belongs to CC(C)Nc1cc(NCc2ccccc2)n2ncc(C(C)C)c2n1 [ICEC0057] ?
93%

Which remaining activity at 0.1 µM value belongs to CC(C)c1cnn2c(NCc3ccccc3)cc(N[C@@H](CO)CCCCCCN)nc12 [ICEC0050] ?
65%
